Readings of folding stability dG unfold for the listed sequences
- Protocol Summary: folding stability dG unfold from chymotrypsin proteolysis; higher = more stable
Recorded Metric: folding stability dG unfold (kcal/mol)

SAGGSAGGSAGGSPLPGQPPEVILIKLDKPVKVGQTITLPDGYKLEVNEETGYLLIVKTSAGGSAGGSAGGS [r4_78_TrROS_Hall]    0.992
SAGGMVLVRIRVDMSPEERKRLEEELRKRVTEVRYLPEDEDVVEVRVSPEALAELPEERITEVELLPSAGGS [r16_328_TrROS_Hall]    -0.654
SGMERTPLTPTETVTLTIPPGSLTITPTASPGPLTVTVTVPGSGTPTVVELPVEAPDLDAALAAVVAALQSA [r9_982_JUSTAS]    1.39
SAGGGMSLTTTTLTFSIDEVDPEELYEELSKKGVTVYSGGKPSNPEEGMEALLKAHPNSSYTVLTRLSAGGS [r8_38_JUSTAS]    -0.483
SAGGEKITIEVDGKKVTITKNEDGTITITIEHNGKVIKTITLPKNLEKITELTLTFNGKTYTITIEPSAGGS [r16_452_TrROS_Hall]    5.01
SAGGSAGGSAGGGSVTIEIEFEAKPGEKFTVTIKGFKKVEITEIYPFDGKVRIKVKVTPESAGGSAGGSAGG [r7_292_TrMRF]    3.88
SAGGSAGGSAGKMYRITVTNENGEKLEIEVPEEVKTEEELKEELKKKIPNVVEVKIEEVPSAGGSAGGSAGG [r11_311_TrROS_Hall]    0.433
